Test system: MRP1 cells, doxorubicin viability shift, 10 uM compound
experimentDescription: viability protection against doxorubicin, MRP-1 line – cell-based, doxorubicin EC50 shift, dose response (AID 844);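 for viability: tested at 10 µM; plate controls were cells with vehicle for no effect and cells with cytotoxic drug for full effect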
measuredQuantity: fold increase in Dox EC50
Reply with just the number.

Worked cases, answers included:
compound | measuredQuantity | dataValue
Cc1cccc(C2CC(c3ccccc3)Nc3ncnn32)c1 (stereo not given) | fold increase in Dox EC50 | 0.46
CCc1nnc(NC(=O)C2CCCN2S(=O)(=O)c2ccccc2)s1 (stereo not given) | fold increase in Dox EC50 | 1.46
CC1=C(C(=O)OC(C)C)C(c2cccc(F)c2)N2C(=O)C(C)SC2=N1 (stereo not given) | fold increase in Dox EC50 | 1.21
O=C(Nc1nnc(C(F)(F)F)s1)C1COc2ccccc2O1 (stereo not given) | fold increase in Dox EC50 | 0.85
COc1ccc(NS(=O)(=O)c2cc(NC(=O)CNC(=O)c3ccc(C)s3)ccc2Cl)cc1 | fold increase in Dox EC50 | 1.44

Ask: Entry CCOc1ccccc1C(=O)OCC(=O)Nc1ccc(OC(F)F)cc1 has what fold increase in Dox EC50?
Result: 0.93

Ask: Name the reported fold increase in Dox EC50 value associated with the compound COc1ccccc1C1CC(c2ccc(Cl)cc2Cl)Nc2nc(N)nn21 (stereo not given)
Result: 0.95

Ask: Given the entry COc1cccc(/C=N/NC(=O)CNC(=O)c2ccc3c(c2)OCCO3)c1O , report its measured fold increase in Dox EC50.
Result: 0.5

Ask: Param item = CN(C)c1ccc(NC(=O)CN2C(=O)CN=C(c3ccccc3)c3cc(Cl)ccc32)cc1 ; retrieve measured fold increase in Dox EC50.
Result: 1.29

Ask: Given the entry O=C(Cn1c(=O)c2c(ncn2Cc2ccccc2)n(Cc2ccccc2)c1=O)N1CCc2ccccc21 , report its measured fold increase in Dox EC50.
Result: 1.07

---

Documented fold increase in Dox EC50 across a set of molecules
Test system: MRP1 cells, doxorubicin viability shift, 10 uM compound
experimentDescription: viability protection against doxorubicin, MRP-1 line – cell-based, doxorubicin EC50 shift, dose response (AID 844);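 for viability: tested at 10 µM; plate controls were cells with vehicle for no effect and cells with cytotoxic drug for full effect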
API doc: respond with a numeric literal and nothing else, no unit.

Reference set (2 entries):
molecule | measuredQuantity | dataValue
CC1=C(C(=O)Nc2ccccc2C)C(c2ccc(C)o2)N2C(=O)CSC2=N1 (stereo unspecified) | fold increase in Dox EC50 | 1.01
O=C(NCc1ccccn1)c1cc(-c2ccc(-c3ccccc3)cc2)nc2ccccc12 | fold increase in Dox EC50 | 0.57

Ask: Look at this molecule and give its reported fold increase in Dox EC50. Cc1ccc(C2=CC(C)(c3ccc(C)cc3)Nc3nc(C(F)(F)F)nn32)cc1 (stereo unspecified)
Result: 0.94

Ask: Fill in: fold increase in Dox EC50 of Cc1ccc(NC(=O)CSc2nnc(-c3cccs3)n2Cc2ccco2)cc1 is ___
Result: 0.78

Ask: Form field: reported fold increase in Dox EC50 of O=C(NC1CCCC1)C(c1c[nH]c2ccccc12)N(C(=O)Cn1nnc(-c2ccc(Cl)cc2)n1)c1ccccc1 (stereo unspecified)
Result: 0.99

Ask: Which fold increase in Dox EC50 value belongs to Cc1ccc(C(c2sc3ncnn3c2O)N2CC(C)CC(C)C2)cc1 (stereo unspecified) ?
Result: 0.72

---

experimentDescription: viability protection against doxorubicin, MRP-1 line – cell-based, doxorubicin EC50 shift, dose response (AID 844);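 for viability: tested at 10 µM; plate controls were cells with vehicle for no effect and cells with cytotoxic drug for full effect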
conditionContext: MRP1 cells, doxorubicin viability shift, 10 uM compound; at 100 µM (top of the series)
Calls of active or inactive are those of the source. How the calls were made is not given here.
Listing of entries alongside the reported viability.

compound | viability
N=C(N)SCc1ccc(Cl)cc1Cl | 10.9% (inactive)
Cc1cc(N/N=C/c2ccc(O)cc2O)nc(-n2nc(C)cc2C)n1 | 15.5% (inactive)
NS(=O)(=O)c1ccc(N=Nc2c(-c3ccccc3)[nH]n(-c3nc(-c4ccccc4)cs3)c2=O)cc1 | 8.13% (inactive)

Ask: Fill in: viability of COc1cccc(/C=N/NC(=O)c2cc(-c3cccn3C)n[nH]2)c1O is ___
Result: 9.49% (inactive)

Ask: For CCOC(=O)c1c(CSC(=N)N)n(-c2ccc(C)cc2)c2cc(Br)c(OC(C)=O)cc12 , what is its reported viability?
Result: 0.37% (inactive)

Ask: Quick check: viability of Oc1ccc(-c2nc(-c3ccc(O)c(O)c3)cs2)cc1 ?
Result: 1.94% (inactive)

Ask: Consider the compound NC1C2CN(c3nc4c(cc3F)c(=O)c(C(=O)O)cn4-c3ccc(F)cc3F)CC12 (stereo not drawn) and give its measured viability.
Result: 17.6% (inactive)

Ask: Quick one: viability of COc1cc(C2Nc3cccc4cccc(c34)N2)cc(OC)c1O ?
Result: 1.31% (inactive)

The reported measurements were obtained from PubChem BioAssay AID844.
